- system: pfNDH2 (Plasmodium falciparum, UniProt Q8I302)
- assay.remarks: Kinetic properties of purified pfNDH2 with electron-accepting substrates
- Assay type: biochemical
- experimental.parameters: in vitro, absence of membrane components
assay.readout: utilization as electron acceptor substrate by pfNDH2 (in words)

>>> assay_result("COC1=C(OC)C(=O)C(C/C=C(\\C)CC/C=C(\\C)CC/C=C(\\C)CCC=C(C)C)=C(C)C1=O")
"not efficiently utilized"
>>> assay_result("CCCCCCCCCCC1=C(C)C(=O)C(OC)=C(OC)C1=O")
"not efficiently utilized"
>>> assay_result("COC1=C(OC)C(=O)C(CC=C(C)C)=C(C)C1=O")
"detectable catalysis"
>>> assay_result("COC1=C(OC)C(=O)C(C)=CC1=O")
"detectable catalysis"
